meta.source: patent US11384063B2

Biological target: ERα (Homo sapiens)
Sequence (P03372 whole entry): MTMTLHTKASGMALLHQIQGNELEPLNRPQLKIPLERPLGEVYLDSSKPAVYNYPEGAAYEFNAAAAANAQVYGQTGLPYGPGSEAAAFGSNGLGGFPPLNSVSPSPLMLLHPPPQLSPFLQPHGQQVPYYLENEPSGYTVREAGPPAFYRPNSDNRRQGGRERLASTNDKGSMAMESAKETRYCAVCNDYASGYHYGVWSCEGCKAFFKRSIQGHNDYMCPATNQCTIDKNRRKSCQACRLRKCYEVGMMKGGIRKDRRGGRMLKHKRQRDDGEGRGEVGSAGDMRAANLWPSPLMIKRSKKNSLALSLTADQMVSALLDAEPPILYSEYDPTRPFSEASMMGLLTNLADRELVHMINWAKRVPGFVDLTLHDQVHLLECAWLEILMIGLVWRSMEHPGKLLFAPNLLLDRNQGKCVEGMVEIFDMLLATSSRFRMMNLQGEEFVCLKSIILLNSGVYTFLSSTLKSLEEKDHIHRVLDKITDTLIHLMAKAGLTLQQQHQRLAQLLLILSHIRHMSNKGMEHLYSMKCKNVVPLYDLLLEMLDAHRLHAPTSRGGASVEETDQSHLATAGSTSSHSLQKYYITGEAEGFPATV
Test: ERE luciferase reporter gene assay in T47D-KBluc cells (target engagement)
Format: cell-based
Design: T47D human breast cancer cells stably transfected with estrogen responsive element/promoter/luciferase reporter gene; host or cells: T47D-KBluc cells
Conditions: 10% FBS, 24 hours, Table 1 cereblon centric PROTACs, read-out: ER-α Luciferase IC50
Experimental: Chimeric molecules were assessed for target engagement in T47D cells using the commercial kit of ERE luciferase reporter gene assay. In the assay, 10% FBS was included and estrogen level was measured to be 10 pM. ERE Luciferase Assay for Compounds in Table 1-3. […]
Give pIC50 for every item shown.
The meaning of pIC50 here: minus log10 of the concentration in molar units.

Recall and state the measured pIC50 for O=C1CCC(N2Cc3cc(OCCOCCOCCOc4ccc(Oc5c(-c6ccc(Br)cc6)sc6cc(O)ccc56)cc4)ccc3C2=O)C(=O)N1 (stereo not drawn) [Compound 39] .
8.51

# return recorded pIC50 for input O=C1CCC(N2C(=O)c3cccc(NCCOCCOCCOc4ccc(Oc5c(-c6ccc(Br)cc6)sc6cc(O)ccc56)cc4)c3C2=O)C(=O)N1 (stereo not drawn) [Compound 26]
8.01

Let me know recorded pIC50 for O=C1CCC(N2C(=O)c3ccc(OCCCOCCCOCCCOc4ccc(Oc5c(-c6ccc(Br)cc6)sc6cc(O)ccc56)cc4)cc3C2=O)C(=O)N1 (stereo not drawn) [Compound 80] , thanks.
7.43

Supply measured pIC50 of O=C1CCC(N2Cc3cc(CNC(=O)C4CCN(CCOc5ccc(Oc6c(-c7ccc(Br)cc7)sc7cc(O)ccc67)cc5)CC4)ccc3C2=O)C(=O)N1 (stereo not drawn) [Compound 57] in your reply.
8.52

Please look at this molecule and report its pIC50: O=C1CCC(N2Cc3c(NCCN4CCN(CCOc5ccc(Oc6c(-c7ccc(O)cc7)sc7cc(O)ccc67)cc5)CC4)cccc3C2=O)C(=O)N1 (stereo not drawn) [Compound 4]
10.05

Return reported pIC50. Input molecule: C[C@H](COc1ccc(Oc2c(-c3ccc(Br)cc3)sc3cc(O)ccc23)cc1)N1CCN(CC(=O)NCc2ccc3c(c2)CN(C2CCC(=O)NC2=O)C3=O)CC1 (stereo partly drawn) [Compound 11]
8.59

Please indicate pIC50 recorded for O=C1CCC(N2Cc3cc(OCCN4CCN(CCOc5ccc(Oc6c(-c7ccc(Br)cc7)sc7cc(O)ccc67)cc5)CC4)ccc3C2=O)C(=O)N1 (stereo not drawn) [Compound 30]
8.89

State, in one line, measured pIC50 of O=C1CCC(N2Cc3cc(OCCCN4CCN(CCOc5ccc(Oc6c(-c7ccc(Br)cc7)sc7cc(O)ccc67)cc5)CC4)ccc3C2=O)C(=O)N1 (stereo not drawn) [Compound 34]
9.00

Tell us which pIC50 value is on record for O=C1CCC(N2Cc3cc(CCCCC(=O)N4CCN(CCOc5ccc(Oc6c(-c7ccc(Br)cc7)sc7cc(O)ccc67)cc5)CC4)ccc3C2=O)C(=O)N1 (stereo not drawn) [Compound 47]
9.07

Return pIC50 (reported value) for this molecule: Cc1nc2c(NCCN3CCN(CCOc4ccc(Oc5c(-c6ccc(Br)cc6)sc6cc(O)ccc56)cc4)CC3)cccc2c(=O)n1C1CCC(=O)NC1=O (stereo not drawn) [Compound 14]
7.75

Output pIC50 of C[C@@H](COc1ccc(Oc2c(-c3ccc(Br)cc3)sc3cc(O)ccc23)cc1)N1CCN(CC(=O)NCc2ccc3c(c2)CN(C2CCC(=O)NC2=O)C3=O)CC1 (stereo partly drawn) [Compound 12]
8.60

Give the reported value of pIC50 for this record: O=C1CCC(N2C(=O)c3ccc(NCCCOCCOCCOc4ccc(Oc5c(-c6ccc(Br)cc6)sc6cc(O)ccc56)cc4)cc3C2=O)C(=O)N1 (stereo not drawn) [Compound 83]
7.35
